target: human NK-3 receptor (Homo sapiens (Human), UniProt P29371); experiment: 3H-SB222200 binding competition assay with human NK-3 receptor; conditions: Table 2; 5 nM 3H-SB222200, CHO membranes; read-out: Competitive binding assay with human NK-3 receptor hNK-3 (Ki)
Sequence (P29371 whole entry): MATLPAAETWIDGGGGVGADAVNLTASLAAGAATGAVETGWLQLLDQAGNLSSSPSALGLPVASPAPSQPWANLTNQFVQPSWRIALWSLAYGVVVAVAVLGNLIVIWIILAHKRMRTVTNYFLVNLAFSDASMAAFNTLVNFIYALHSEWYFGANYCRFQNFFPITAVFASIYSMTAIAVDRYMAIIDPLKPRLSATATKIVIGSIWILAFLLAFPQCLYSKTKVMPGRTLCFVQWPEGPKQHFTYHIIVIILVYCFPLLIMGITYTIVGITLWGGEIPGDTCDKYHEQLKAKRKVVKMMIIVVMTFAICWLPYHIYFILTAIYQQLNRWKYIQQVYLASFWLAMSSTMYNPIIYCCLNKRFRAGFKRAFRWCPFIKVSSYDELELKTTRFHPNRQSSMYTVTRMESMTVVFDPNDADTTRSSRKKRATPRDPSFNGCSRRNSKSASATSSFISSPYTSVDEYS
Ki less than 40 nM is fulfilled; Ki greater than or equal to 40 nM is not fulfilled.

Study these solved cases before continuing.
Cc1nsc(-c2nnc3n2CCN(C(=O)c2ccc(Cl)c(F)c2)C3C)n1 (racemic)    not fulfilled
Cc1nsc(-c2nnc3n2CCN(C(=O)c2ccccc2)[C@@H]3C)n1    not fulfilled
Cc1nsc(-c2nnc3n2CCN(C(=O)c2ccc(F)cc2)[C@@H]3CCO)n1    fulfilled
Cc1nsc(-c2nnc3n2CCN(C(=O)c2cc(F)c(F)c(F)c2)[C@@H]3C)n1    fulfilled
C[C@@H]1c2nnc(-c3nc(C(F)F)ns3)n2CCN1C(=O)c1ccc(F)cc1    not fulfilled

IN: Problem: For the molecule Cc1nsc(-c2nnc3n2CCN(C(=O)c2ccc(C(F)(F)F)cc2)[C@@H]3C)n1 , is Ki under 40 nM?
OUT: not fulfilled

IN: Problem: For the molecule C[C@@H]1c2nnc(-c3nc(C(C)(F)F)no3)n2CCN1C(=O)c1ccc(F)cc1 , is Ki under 40 nM?
OUT: not fulfilled

IN: Problem: For the molecule Cc1nsc(-c2nnc3n2CCN(C(=O)c2ccc(F)c(F)c2)C3C)n1 (racemic) , is Ki under 40 nM?
OUT: not fulfilled

IN: Problem: For the molecule Cc1nsc(-c2nnc3n2CCN(C(=O)c2ccc(F)cc2F)[C@@H]3C)n1 , is Ki under 40 nM?
OUT: not fulfilled

IN: Problem: For the molecule CCC[C@@H]1c2nnc(-c3nc(C)ns3)n2CCN1C(=O)c1ccc(F)cc1 , is Ki under 40 nM?
OUT: not fulfilled

IN: Problem: For the molecule CCc1nsc(-c2nnc3n2CCN(C(=O)c2ccc(F)cc2)C3C)n1 (racemic) , is Ki under 40 nM?
OUT: fulfilled

IN: Problem: For the molecule Cc1nsc(-c2nnc3n2CCN(C(=O)c2ccc(F)cc2)C3C)n1 (racemic) , is Ki under 40 nM?
OUT: not fulfilled

IN: Problem: For the molecule Cc1noc(-c2nnc3n2CCN(C(=O)c2ccc(F)cc2)[C@@H]3C)n1 , is Ki under 40 nM?
OUT: not fulfilled

IN: Problem: For the molecule CCc1noc(-c2nnc3n2CCN(C(=O)c2ccc(F)cc2)C3C)n1 (racemic) , is Ki under 40 nM?
OUT: not fulfilled

IN: Problem: For the molecule CC(F)c1noc(-c2nnc3n2CCN(C(=O)c2ccc(F)cc2)[C@@H]3C)n1 (stereo partly drawn) [Compound 45] , is Ki under 40 nM?
OUT: not fulfilled

IN: Problem: For the molecule Cc1nsc(-c2nnc3n2CCN(C(=O)c2ccc(Cl)c(Cl)c2)C3C)n1 (racemic) , is Ki under 40 nM?
OUT: fulfilled

IN: Problem: For the molecule CC[C@@H]1c2nnc(-c3nc(C)ns3)n2CCN1C(=O)c1ccc(F)cc1 , is Ki under 40 nM?
OUT: not fulfilled

IN: Problem: For the molecule CCc1noc(-c2nnc3n2CCN(C(=O)c2ccc(-c4cccs4)cc2)[C@@H]3C)n1 , is Ki under 40 nM?
OUT: fulfilled

IN: Problem: For the molecule CCc1nsc(-c2nnc3n2CCN(C(=O)c2ccc(F)cc2)[C@@H]3C)n1 , is Ki under 40 nM?
OUT: fulfilled

IN: Problem: For the molecule Cc1nsc(-c2nnc3n2CCN(C(=O)c2cc(F)c(F)c(F)c2F)C3C)n1 (racemic) , is Ki under 40 nM?
OUT: not fulfilled

IN: Problem: For the molecule Cc1nsc(-c2nnc3n2CCN(C(=O)c2cc(F)c(F)c(F)c2F)[C@@H]3C)n1 , is Ki under 40 nM?
OUT: fulfilled

IN: Problem: For the molecule Cc1nsc(-c2nnc3n2CCN(C(=O)c2ccc(Cl)c(F)c2)[C@@H]3C)n1 , is Ki under 40 nM?
OUT: fulfilled

IN: Problem: For the molecule Cc1ccc(C(=O)N2CCn3c(-c4nc(C)ns4)nnc3[C@H]2C)cc1 , is Ki under 40 nM?
OUT: not fulfilled

IN: Problem: For the molecule Cc1nsc(-c2nnc3n2CCN(C(=O)c2ccc(F)c(F)c2)[C@@H]3C)n1 , is Ki under 40 nM?
OUT: fulfilled

IN: Problem: For the molecule Cc1nsc(-c2nnc3n2CCN(C(=O)c2ccccc2C)[C@@H]3C)n1 , is Ki under 40 nM?
OUT: not fulfilled
